- target_or_system: cetuximab Fab fragment
- Sequence (as listed by the source, other chains not shown): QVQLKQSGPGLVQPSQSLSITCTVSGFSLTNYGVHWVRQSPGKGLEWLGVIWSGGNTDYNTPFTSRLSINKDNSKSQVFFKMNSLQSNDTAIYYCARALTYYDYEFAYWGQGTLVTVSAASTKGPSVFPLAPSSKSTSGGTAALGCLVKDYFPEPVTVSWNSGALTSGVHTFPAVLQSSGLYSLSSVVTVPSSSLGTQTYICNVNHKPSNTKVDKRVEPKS
- method_summary: meditope binding to cetuximab Fab
- test_context: meditope-binding site within the central cavity of the cetuximab Fab fragment; read-out: binding constant
pKd: −log10 of the molar value.
measurement_label: pKd

Problem: Can you share its pKd? I mean this substance: C-QFDLSTRRLK-C [cQFD meditope]
Solution: ~6.15
